Below, each entry is listed alongside its reported Ki.
# assay system: Human α2δ-1 subunit of Cav2.2 calcium channel (Homo sapiens)
# protocol description: Human α2δ-1 subunit of Cav2.2 calcium channel assay ([3H]-gabapentin binding)
# cond: binding to the α2δ-1 subunit of voltage-gated calcium channels expressed as Ki; + also covers inhibition between 1% and 50%

For record "Cc1nn2c([C@H]3CCCN(Cc4ccccc4F)C3)ccnc2c1CNCC1CCOCC1" the listed Ki is > 5 µM

For record Cc1nn2c(C3CCCN(Cc4ccc(Cl)cc4)C3)ccnc2c1CNCC1CCN(C(N)=O)CC1 (stereo not drawn) the listed Ki is 0.5 to 5 µM

For record Cc1cc2nccc(C3CCCN(Cc4c(F)cccc4F)C3)n2n1 (stereo not drawn) the listed Ki is 0.5 to 5 µM

For record c1ccc(CN2CCCC(c3ccnc4cc(-c5cccs5)nn34)C2)cc1 (stereo not drawn) the listed Ki is 0.5 to 5 µM

For record Cc1nn2c(C3CCCN(Cc4ccccc4)C3)ccnc2c1CNCCc1ccccc1 (stereo not drawn) the listed Ki is 0.5 to 5 µM

For record Clc1cccc(CN2CCCC(c3ccnc4cc(Br)nn34)C2)c1 (stereo not drawn) the listed Ki is > 5 µM

For record "Cc1nn2c([C@@H]3CCCN(Cc4ccc(F)cc4)C3)ccnc2c1CNCC1CCOCC1" the listed Ki is > 5 µM

For record N#Cc1cc2nccc(C3CCCN(Cc4ccccc4)C3)n2n1 (stereo not drawn) the listed Ki is 0.5 to 5 µM

For record CC(=O)Nc1nn2c(C3CCCN(Cc4ccccc4)C3)ccnc2c1C (stereo not drawn) the listed Ki is > 5 µM

###

# assay system: Human σ1 receptor (Homo sapiens, UniProt Q99720)
# Sequence (Q99720 whole entry): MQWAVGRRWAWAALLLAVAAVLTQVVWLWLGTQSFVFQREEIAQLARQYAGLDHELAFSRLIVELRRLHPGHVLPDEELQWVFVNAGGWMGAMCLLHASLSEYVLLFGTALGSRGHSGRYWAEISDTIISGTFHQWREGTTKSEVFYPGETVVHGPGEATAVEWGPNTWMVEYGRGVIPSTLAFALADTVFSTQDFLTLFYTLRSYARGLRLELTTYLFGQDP
Below, each entry is listed alongside its reported Ki.

Known results for compounds:
[
  {
    "compound": "Cc1nn2c(C3CCCN(Cc4ccc(Cl)cc4)C3)ccnc2c1CN(CC1CCOCC1)C(C)C (stereo not shown)",
    "assay system": "Human σ1 receptor (Homo sapiens, UniProt Q99720)",
    "endpoint label": "Ki",
    "observed measurement": "< 500 nM"
  },
  {
    "compound": "Clc1ccc(CN2CCCC(c3ccnc4c(CNCC5CCOCC5)c(C5CC5)nn34)C2)cc1 (stereo not shown)",
    "assay system": "Human σ1 receptor (Homo sapiens, UniProt Q99720)",
    "endpoint label": "Ki",
    "observed measurement": "< 500 nM"
  },
  {
    "compound": "Oc1ncccc1-c1cc2nccc(C3CCCN(Cc4cccc(Cl)c4)C3)n2n1 (stereo not shown)",
    "assay system": "Human σ1 receptor (Homo sapiens, UniProt Q99720)",
    "endpoint label": "Ki",
    "observed measurement": "> 1000 nM"
  }
]

Let us move to another entry and its Ki.
For record Cc1nn2c(CC3CCCN(Cc4ccc(Cl)cc4)C3)ccnc2c1-c1ccncc1 (stereo not shown) the listed Ki is < 500 nM

###

pKi: −log10 of the molar value.
Quick record of pKi values for Human σ1 receptor (Homo sapiens, UniProt Q99720).

For record Cc1nn2c([C@H]3CCCN(Cc4ccccc4)C3)ccnc2c1CNC[C@H]1CCC(=O)NC1 [Example 245] the listed pKi is < 6.00

For record Cc1nn2c(CC3CCCN(Cc4cccc(Cl)c4)C3)ccnc2c1CN(C)C (stereo not shown) [Example 252] the listed pKi is > 6.30

For record Cc1nn2c(C3CCCN(Cc4ccc(Cl)cc4)C3)ccnc2c1CNCc1ccccc1 (stereo not shown) [Example 144] the listed pKi is > 6.30

For record Cc1nn2c(C3CCCN(Cc4ccc(Cl)cc4)C3)ccnc2c1CCN(C)C (stereo not shown) [Example 236] the listed pKi is > 6.30

###

Quick record of Ki values for Human σ1 receptor (Homo sapiens, UniProt Q99720).

Known results for molecules:
[
  {
    "molecule": "CC(=O)Nc1c(C)nn2c(C3CCCN(Cc4ccccc4)C3)ccnc12 (stereo not drawn)",
    "Ki": "> 1000 nM"
  },
  {
    "molecule": "Cc1nn2c(C3CCCN(Cc4ccc(C(F)(F)F)nc4)C3)ccnc2c1CNCC1CCOCC1 (stereo not drawn)",
    "Ki": "< 500 nM"
  },
  {
    "molecule": "Oc1ncccc1-c1cc2nccc(C3CCCN(Cc4ccc(Cl)cc4)C3)n2n1 (stereo not drawn)",
    "Ki": "> 1000 nM"
  }
]

For record Cc1nn2c(C3CCCN(Cc4cccc(Cl)c4)C3)ccnc2c1-c1ccncc1 (stereo not drawn) the listed Ki is > 1000 nM

For record "Cc1nn2c([C@@H]3CCCN(Cc4ccc(Cl)cc4)C3)ccnc2c1CN(C)C" the listed Ki is < 500 nM

For record COc1ncccc1-c1cc2nccc(C3CCCN(Cc4ccc(F)c(F)c4)C3)n2n1 (stereo not drawn) the listed Ki is > 1000 nM

###

# assay system: Human α2δ-1 subunit of Cav2.2 calcium channel (Homo sapiens, UniProt P54289)
# Sequence (P54289 25-1103): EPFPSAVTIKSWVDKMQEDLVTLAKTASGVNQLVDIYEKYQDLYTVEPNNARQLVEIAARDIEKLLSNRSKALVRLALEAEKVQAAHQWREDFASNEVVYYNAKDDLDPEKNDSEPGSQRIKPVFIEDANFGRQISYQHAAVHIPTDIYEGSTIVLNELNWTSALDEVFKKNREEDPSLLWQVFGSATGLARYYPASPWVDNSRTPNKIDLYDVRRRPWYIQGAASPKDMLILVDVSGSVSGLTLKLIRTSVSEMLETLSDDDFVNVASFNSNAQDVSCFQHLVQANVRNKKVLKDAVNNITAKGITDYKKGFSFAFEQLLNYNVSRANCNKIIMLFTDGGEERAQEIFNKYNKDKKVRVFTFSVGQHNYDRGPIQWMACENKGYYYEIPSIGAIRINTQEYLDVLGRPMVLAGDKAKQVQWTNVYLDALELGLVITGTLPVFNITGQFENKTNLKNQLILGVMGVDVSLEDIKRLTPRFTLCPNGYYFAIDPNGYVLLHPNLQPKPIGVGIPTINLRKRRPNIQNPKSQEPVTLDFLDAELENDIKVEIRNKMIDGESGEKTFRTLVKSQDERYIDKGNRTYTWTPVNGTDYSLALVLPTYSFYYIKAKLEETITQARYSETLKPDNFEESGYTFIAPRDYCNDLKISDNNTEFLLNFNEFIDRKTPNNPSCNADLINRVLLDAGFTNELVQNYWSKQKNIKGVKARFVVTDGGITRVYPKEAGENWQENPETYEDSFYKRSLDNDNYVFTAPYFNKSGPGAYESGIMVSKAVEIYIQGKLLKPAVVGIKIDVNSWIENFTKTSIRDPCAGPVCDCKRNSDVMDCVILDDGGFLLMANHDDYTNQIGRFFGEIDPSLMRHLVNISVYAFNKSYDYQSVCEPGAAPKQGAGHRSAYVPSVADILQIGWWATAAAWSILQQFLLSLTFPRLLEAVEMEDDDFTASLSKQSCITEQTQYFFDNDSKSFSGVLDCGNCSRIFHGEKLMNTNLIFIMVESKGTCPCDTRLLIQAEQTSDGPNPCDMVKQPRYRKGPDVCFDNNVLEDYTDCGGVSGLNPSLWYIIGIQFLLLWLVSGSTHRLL
# protocol description: Human α2δ-1 subunit of Cav2.2 calcium channel assay ([3H]-gabapentin binding)
# cond: binding to the α2δ-1 subunit of voltage-gated calcium channels expressed as Ki; + also covers inhibition between 1% and 50%
endpoint label: Ki

Known results for molecules:
[
  {
    "molecule": "Cc1nn2c(C3CCCN(Cc4ccc(Cl)cc4)C3)ccnc2c1CNCC(C)C (centres unmarked) [Example 160]",
    "Ki": "0.5 to 5 µM"
  },
  {
    "molecule": "Cc1nn2c(C3CCCN(Cc4ccccc4)C3)ccnc2c1COc1ccccc1 (centres unmarked) [Example 102]",
    "Ki": "> 5 µM"
  }
]

For record Clc1ccc(-c2cc3nccc(C4CCCN(Cc5ccccc5)C4)n3n2)cc1 (centres unmarked) [Example 15] the listed Ki is > 5 µM

For record Cc1nn2c([C@H]3CCCN(Cc4ccccc4)C3)ccnc2c1CNC[C@@H]1CCN(C)C(=O)C1 [Example 243] the listed Ki is 0.5 to 5 µM

For record c1ccc(CN2CCCC(c3ccnc4cc(-c5cnsc5)nn34)C2)cc1 (centres unmarked) [Example 20] the listed Ki is 0.5 to 5 µM

###

# assay system: Human σ1 receptor (Homo sapiens, UniProt Q99720)
endpoint label: Ki

Known results for compounds:
[
  {
    "compound": "Cc1nn2c(C3CCCN(Cc4ccccc4)C3)ccnc2c1-c1ccncc1F (centres unmarked)",
    "assay system": "Human σ1 receptor (Homo sapiens, UniProt Q99720)",
    "endpoint label": "Ki",
    "observed measurement": "> 1000 nM"
  },
  {
    "compound": "CCc1nn2c(C3CCCN(Cc4ccccc4)C3)ccnc2c1-c1ccncc1 (centres unmarked)",
    "assay system": "Human σ1 receptor (Homo sapiens, UniProt Q99720)",
    "endpoint label": "Ki",
    "observed measurement": "> 1000 nM"
  },
  {
    "compound": "Cc1nn2c([C@H]3CCCN(Cc4ccccc4)C3)ccnc2c1CNCC1CCOCC1",
    "assay system": "Human σ1 receptor (Homo sapiens, UniProt Q99720)",
    "endpoint label": "Ki",
    "observed measurement": "< 500 nM"
  },
  {
    "compound": "CNCc1c(C)nn2c(C3CCCN(Cc4ccccc4)C3)ccnc12 (centres unmarked)",
    "assay system": "Human σ1 receptor (Homo sapiens, UniProt Q99720)",
    "endpoint label": "Ki",
    "observed measurement": "> 1000 nM"
  }
]

Let us move to another entry and its Ki.
For record Cc1nn2c(C3CCCN(Cc4ccccc4)C3)ccnc2c1N(C)C (centres unmarked) the listed Ki is > 1000 nM

###

# assay system: Human α2δ-1 subunit of Cav2.2 calcium channel (Homo sapiens, UniProt P54289)
# protocol description: Human α2δ-1 subunit of Cav2.2 calcium channel assay ([3H]-gabapentin binding)
# cond: binding to the α2δ-1 subunit of voltage-gated calcium channels expressed as Ki; + also covers inhibition between 1% and 50%
pKi: −log10 of the molar value.
endpoint label: pKi

Known results for compounds:
[
  {
    "compound": "Cc1nn2c(C3CCCN(Cc4ccc(Cl)cc4)C3)ccnc2c1-c1cnc(N)nc1 (stereo not drawn)",
    "pKi": "< 5.30"
  },
  {
    "compound": "Clc1ccc(CN2CCCC(c3ccnc4cc(Br)nn34)C2)cc1Cl (stereo not drawn)",
    "pKi": "< 5.30"
  },
  {
    "compound": "Cc1ccc(CNCc2c(C)nn3c(C4CCCN(Cc5ccc(Cl)cc5)C4)ccnc23)s1 (stereo not drawn)",
    "pKi": "5.30 to 6.30"
  },
  {
    "compound": "Cc1cnccc1-c1c(C)nn2c(C3CCCN(Cc4ccccc4)C3)ccnc12 (stereo not drawn)",
    "pKi": "< 5.30"
  }
]

For record CCCCN1CCCC(c2ccnc3cc(C)nn23)C1 (stereo not drawn) the listed pKi is < 5.30

For record "Cc1nn2c([C@H]3CCCN(Cc4ccc(Cl)cc4)C3)ccnc2c1CNC[C@@H]1CCOC1" the listed pKi is 5.30 to 6.30

For record Cc1nn2c(C3CCCN(Cc4ccc(Cl)cc4)C3)ccnc2c1CNC(C)C (stereo not drawn) the listed pKi is 5.30 to 6.30

For record CC(=O)N1CCC(CNCc2c(Cl)nn3c(C4CCCN(CCC(C)C)C4)ccnc23)CC1 (stereo not drawn) the listed pKi is < 5.30

For record CNCc1cc(-c2c(C)nn3c(C4CCCN(Cc5ccccc5)C4)ccnc23)ccn1 (stereo not drawn) the listed pKi is 5.30 to 6.30

Every entry's value here was drawn from patent US12617797B2.
